The measurements presented in this section are drawn from ChEMBL document CHEMBL2384961.

# System: Severe acute respiratory syndrome-related coronavirus
# Assay procedure: Inhibition of SARS coronavirus papain-like protease (1541 to 1855 amino acids) expressed in Escherichia coli BL21 (DE3) using Z-RLRGG-AMC as substrate by fluorogenic assay
Property label: inhibition

| Compound | Assayed system | Property label | Value observed |
| --- | --- | --- | --- |
| COc1ccc([C@@H]2CC(=O)c3c(cc(O)c(C/C=C(\C)CCC=C(C)C)c3O)O2)cc1O | Severe acute respiratory syndrome-related coronavirus | inhibition | Dose-dependent effect |
| COc1cc([C@@H]2CC(=O)c3c(cc4c(c3O)CCC(C)(CCCC(C)(C)O)O4)O2)cc(OC)c1O (some centres undefined) | Severe acute respiratory syndrome-related coronavirus | inhibition | Dose-dependent effect |
| COc1cc([C@@H]2CC(=O)c3c(cc(O)c(C/C=C(\C)CCC=C(C)C)c3O)O2)ccc1O | Severe acute respiratory syndrome-related coronavirus | inhibition | Dose-dependent effect |
| COc1cc([C@@H]2CC(=O)c3c(cc4c(c3O)CCC(C)(CCCC(C)(C)O)O4)O2)cc(O)c1OC (some centres undefined) | Severe acute respiratory syndrome-related coronavirus | inhibition | Dose-dependent effect |
